- method.description: Half life in mouse at 1 mg/kg, iv and 2 mg/kg, po
- Type: ADME, organism-based
- condition.details: in vivo
recorded.endpoint: half-life (h)
Respond numerically; units are h and should not be typed.

-- ask Quick one: half-life for C[C@H](NC(=O)[C@@H](NC(=O)C(C)(C)N)[C@@H](C)c1ccc(-c2ccccc2)cc1)c1nc2cc(Cl)c(Cl)cc2[nH]1 ?
-- reply 4

====

- study.system: Lysosomal Pro-X carboxypeptidase (Mus musculus)
- Sequence (Q7TMR0 whole entry): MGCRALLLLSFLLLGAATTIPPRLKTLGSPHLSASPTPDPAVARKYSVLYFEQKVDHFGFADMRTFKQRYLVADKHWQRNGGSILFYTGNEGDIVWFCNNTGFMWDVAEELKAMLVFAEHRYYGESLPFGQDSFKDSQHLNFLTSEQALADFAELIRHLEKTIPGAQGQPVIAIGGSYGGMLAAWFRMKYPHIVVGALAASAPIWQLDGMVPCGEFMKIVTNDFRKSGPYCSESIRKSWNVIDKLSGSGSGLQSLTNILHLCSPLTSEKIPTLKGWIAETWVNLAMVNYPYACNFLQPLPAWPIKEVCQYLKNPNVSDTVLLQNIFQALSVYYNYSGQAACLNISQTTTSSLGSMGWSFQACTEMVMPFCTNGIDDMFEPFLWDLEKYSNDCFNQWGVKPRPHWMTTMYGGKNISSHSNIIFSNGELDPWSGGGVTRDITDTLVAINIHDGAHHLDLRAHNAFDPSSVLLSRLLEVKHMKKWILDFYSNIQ
- method.description: Inhibition of mouse recombinant PrCP using Mca-Ala-Pro-Lys(Dnp)-OH as substrate for 30 mins by continuous fluorimetric assay
IC50 values, listed per item
Numeric only. Scale: nM

-- ask Checklist item: IC50 tested on Lysosomal Pro-X carboxypeptidase (Mus musculus), entry C[C@H](NC(=O)[C@H](Cc1cccc(C#N)c1)NC(=O)C(C)(C)N)c1nc2cc(Cl)c(Cl)cc2[nH]1 , value?
-- reply 128

***
-- ask Tell me reported IC50 for C[C@H](NC(=O)[C@@H](NC(=O)C(C)(C)N)[C@@H](C)c1ccc(-c2ccccc2)cc1)c1nc2cc(Cl)c(Cl)cc2[nH]1 , tested with Lysosomal Pro-X carboxypeptidase (Mus musculus).
-- reply 0.039
